# experimental-system: HLA-DRB1*04:01 (Homo sapiens, UniProt P01903+P01911, A100K/A169T/F76Y/I96L/K127E/L162R/M171V/N62H/P40V/Q125Y/R42H/S133A/S149N/S66Y/V115G/V209L/W38E)
# Construct: EBV transformed homozygous cell lines were used as sources of MHC molecules; endogenous in cells; host or cells: EBV transformed homozygous cell lines
# test: HLA class II peptide binding, inhibition of radiolabeled peptide binding to purified MHC
# assay-context: citrullinated 15-mer peptide (X = citrulline); purified HLA-DRB1*04:01; read-out: DRB1*04:01 binding capacity, Cit peptide (IC50 nM)
Square brackets hold non-standard residues; d marks the D form. Peptide text beside a SMILES is read from it. Cit = NC(=O)NCCC[C@H](N)C(=O)O
Quick reference for IC50 among some molecules

molecule: CC[C@H](C)[C@H](NC(=O)[C@H](CCC(=O)O)NC(=O)[C@H](CC(=O)O)NC(=O)[C@@H](N)CCC(N)=O)C(=O)N[C@@H](CCC(N)=O)C(=O)N[C@@H](CC(N)=O)C(=O)N[C@@H](CCSC)C(=O)N[C@@H](CCCCN)C(=O)N[C@@H](CCC(=O)O)C(=O)N[C@@H](CCC(=O)O)C(=O)N[C@@H](CCSC)C(=O)N[C@@H](C)C(=O)N[C@@H](CCCNC(N)=O)C(=O)N[C@@H](Cc1c[nH]cn1)C(=O)N[C@@H](CC(C)C)C(=O)O
IC50 / nM: 3940

molecule: CC[C@H](C)[C@H](NC(=O)CNC(=O)[C@@H]1CCCN1)C(=O)N[C@@H](CC(=O)O)C(=O)N[C@@H](CCSC)C(=O)N[C@@H](CO)C(=O)N[C@@H](C)C(=O)N[C@@H](Cc1ccccc1)C(=O)N[C@@H](C)C(=O)NCC(=O)N[C@@H](CC(C)C)C(=O)NCC(=O)N1CCC[C@H]1C(=O)N[C@@H](CCCNC(N)=O)C(=O)N[C@@H](CCC(=O)O)C(=O)O [PGIDMSAFAGLGPXE] (H-PGIDMSAFAGLGP[Cit]E-OH)
IC50 / nM: 12900

molecule: CC[C@H](C)[C@H](NC(=O)[C@H](CCCNC(N)=O)NC(=O)[C@H](CO)NC(=O)[C@H](CCC(=O)O)NC(=O)[C@H](CCC(=O)O)NC(=O)CNC(=O)[C@H](CCC(=O)O)NC(=O)[C@H](CC(C)C)NC(=O)[C@H](CC(C)C)NC(=O)[C@H](CCCCN)NC(=O)[C@@H](N)CCCNC(=N)N)C(=O)N[C@@H](CO)C(=O)N[C@@H](CC(C)C)C(=O)N1CCC[C@H]1C(=O)N[C@@H](CC(C)C)C(=O)O
IC50 / nM: 1200

molecule: CC[C@H](C)[C@H](NC(=O)[C@@H](NC(=O)[C@H](CC(=O)O)NC(=O)[C@H](CCC(N)=O)NC(=O)[C@H](Cc1ccc(O)cc1)NC(=O)[C@H](CC(N)=O)NC(=O)[C@H](C)NC(=O)[C@H](C)NC(=O)[C@H](CCC(=O)O)NC(=O)[C@@H](NC(=O)[C@H](C)NC(=O)[C@@H](N)Cc1ccccc1)C(C)C)[C@@H](C)O)C(=O)NCC(=O)N[C@@H](CCCNC(N)=O)C(=O)N[C@@H](CC(C)C)C(=O)O [FAVEAANYQDTIGXL] (H-FAVEAANYQDTIG[Cit]L-OH)
IC50 / nM: 768

molecule: CSCC[C@H](NC(=O)[C@H](CCC(N)=O)NC(=O)[C@H](CCCNC(N)=O)NC(=O)[C@H](CCC(=O)O)NC(=O)[C@H](CC(C)C)NC(=O)[C@H](CO)NC(=O)[C@H](CCC(=O)O)NC(=O)[C@H](CC(N)=O)NC(=O)[C@@H](NC(=O)CNC(=O)[C@H](CCCCN)NC(=O)[C@H](CC(C)C)NC(=O)[C@H](C)NC(=O)[C@@H](N)CC(=O)O)[C@@H](C)O)C(=O)N[C@@H](CCCNC(=N)N)C(=O)O [DALKGTNESLEXQMR] (H-DALKGTNESLE[Cit]QMR-OH)
IC50 / nM: 16600
